target: Dual specificity tyrosine-phosphorylation-regulated kinase 1A (Homo sapiens) (UniProt Q13627); settings: at 1 µM
Description: GSK_PKIS: DYRK1A mean inhibition at 1 uM [Nanosyn]
readout_kind: inhibition (%)

INSERT INTO assay_data (molecule, value_reported) VALUES
  ('NS(=O)(=O)c1cccc(-c2cc3ccncc3cc2OCc2ccccc2)c1', 5.5),
  ('FC(F)(F)c1ccc(-c2nn3ncccc3c2-c2ccnc(Nc3ccc4c(c3)OCCO4)n2)cc1', 6.32),
  ('Oc1cccc(-c2nc(-c3ccccc3)[nH]c2-c2ccncc2)c1', 8.77),
  ('Nc1nccc(-c2c(-c3ccc(F)cc3)ncn2CCCN2CCOCC2)n1', 3.19),
  ('CCCN1CCCC(c2ccc(Nc3nc(Nc4cc(F)ccc4C(N)=O)c4cc[nH]c4n3)c(OC)c2)C1 (centres undefined)', 82.7),
  ('CS(=O)(=O)Nc1cccc(-c2ccc3c(NC(=O)C4CC4)n[nH]c3c2)c1', 2.54),
  ('COC(=O)c1ccc2c(c1)C(=Cc1cc(Br)c(O)c(Br)c1)C(=O)N2', 61.9),
  ('CC(C)c1ccc2c(c1)NC(=O)/C2=N/Nc1ccc(S(N)(=O)=O)cc1', 2.99),
  ('Cc1ccc2c(-c3ccnc(Nc4cccc(C(F)(F)F)c4)n3)c(-c3ccccc3)nn2n1', 2.62),
  ('Cc1ccc(Nc2ccnc(Nc3cccc(C(N)=O)c3)n2)cc1O', 26.5),
  ('CCn1c(-c2nonc2N)nc2ccc(F)cc21', 10.8),
  ('C[C@@H](Oc1cc(-n2cnc3ccc(OC[C@@H](O)CO)cc32)sc1C(N)=O)c1ccccc1Cl', 3.71),
  ('CCS(=O)(=O)c1ccc(OC)c(Nc2nccc(N(C)c3ccc4c(C)n[nH]c4c3)n2)c1', 3.45),
  ('ON=C1CCc2cc(-c3nc(C4CCNCC4)[nH]c3-c3ccncc3)ccc21', 1.12),
  ('Nc1nccc(-c2c(-c3ccc(F)cc3)nn3cc(C(F)(F)F)ccc23)n1', 16.4),
  ('COc1cc2ncnc(Nc3ccc(C)c(O)c3)c2cc1OC', 7.48),
  ('c1ccc(Cc2nc3ccc(Nc4ncnc5ccccc45)cc3[nH]2)cc1', 9.77),
  ('Cc1nc(-c2ccccc2)n2nc(NCCCN3CCOCC3)ncc12', 19),
  ('O=C1Nc2ccccc2/C1=C/Nc1ccc2[nH]c(=O)[nH]c2c1', 23.3),
  ('CN1CCN(C(=O)c2ccc(NC(=O)Nc3ccc(N(C)c4ccnc(Nc5ccc(CS(C)(=O)=O)cc5)n4)cc3)cc2)CC1', -2.1),
  ('Cc1ccc2c(c1)/C(=N/Nc1ccc(S(N)(=O)=O)cc1)C(=O)N2', 2.94),
  ('NS(=O)(=O)c1ccc(NC=C2C(=O)Nc3ccc4ncsc4c32)cc1', 63.2),
  ('OCc1ccc(-c2nc(-c3ccccn3)c(-c3ccc4c(c3)OCO4)[nH]2)cc1', 4.86),
  ('CCn1c(-c2nonc2N)nc2c(C#CC(C)(C)O)nc(OCCNC)cc21', 2.94),
  ('COC(=O)Nc1nc2cc(Oc3ccc(NC(=O)Nc4cccc(Br)c4)cc3)ccc2[nH]1', 2.3),
  ('CCS(=O)(=O)c1ccc(OC)c(Nc2ncc(-c3cccc(OC)c3)o2)c1', 41.4),
  ('COc1cc(/C=N/Nc2ncnc3c2cnn3C(C)C)ccc1O', 8.18),
  ('O=C(Nc1ccc(Oc2ccc3[nH]c(NC(=O)c4ccco4)nc3c2)cc1)Nc1cc(C(F)(F)F)ccc1F', -1.33),
  ('Cc1cc(-c2ccccn2)cc(C)c1/C=C/c1cncc(-c2nn[nH]n2)c1', 1.98),
  ('COc1cc(Nc2nccc(-c3cnn4ncccc34)n2)cc(OC)c1', 91.2),
  ('COc1ccc2ncnc(Nc3ccc(OCc4ccccc4)cc3)c2c1', 3.73),
  ('N#Cc1c(NC(=O)c2ccccc2F)sc2c1CCCC2', 1.91),
  ('NS(=O)(=O)c1ccc(Nc2cc(-c3cccc(O)c3)n[nH]2)cc1', 7.37),
  ('CS(=O)(=O)CCNCc1nc(-c2ccc3ncnc(Nc4ccc(OCc5cccc(C(F)(F)F)c5)cc4)c3c2)cs1', -1.8);

====

target: PAS domain-containing serine/threonine-protein kinase (Homo sapiens) (UniProt Q96RG2); details: at 0.1 µM
Sequence (Q96RG2 whole entry, the tested form may be a part): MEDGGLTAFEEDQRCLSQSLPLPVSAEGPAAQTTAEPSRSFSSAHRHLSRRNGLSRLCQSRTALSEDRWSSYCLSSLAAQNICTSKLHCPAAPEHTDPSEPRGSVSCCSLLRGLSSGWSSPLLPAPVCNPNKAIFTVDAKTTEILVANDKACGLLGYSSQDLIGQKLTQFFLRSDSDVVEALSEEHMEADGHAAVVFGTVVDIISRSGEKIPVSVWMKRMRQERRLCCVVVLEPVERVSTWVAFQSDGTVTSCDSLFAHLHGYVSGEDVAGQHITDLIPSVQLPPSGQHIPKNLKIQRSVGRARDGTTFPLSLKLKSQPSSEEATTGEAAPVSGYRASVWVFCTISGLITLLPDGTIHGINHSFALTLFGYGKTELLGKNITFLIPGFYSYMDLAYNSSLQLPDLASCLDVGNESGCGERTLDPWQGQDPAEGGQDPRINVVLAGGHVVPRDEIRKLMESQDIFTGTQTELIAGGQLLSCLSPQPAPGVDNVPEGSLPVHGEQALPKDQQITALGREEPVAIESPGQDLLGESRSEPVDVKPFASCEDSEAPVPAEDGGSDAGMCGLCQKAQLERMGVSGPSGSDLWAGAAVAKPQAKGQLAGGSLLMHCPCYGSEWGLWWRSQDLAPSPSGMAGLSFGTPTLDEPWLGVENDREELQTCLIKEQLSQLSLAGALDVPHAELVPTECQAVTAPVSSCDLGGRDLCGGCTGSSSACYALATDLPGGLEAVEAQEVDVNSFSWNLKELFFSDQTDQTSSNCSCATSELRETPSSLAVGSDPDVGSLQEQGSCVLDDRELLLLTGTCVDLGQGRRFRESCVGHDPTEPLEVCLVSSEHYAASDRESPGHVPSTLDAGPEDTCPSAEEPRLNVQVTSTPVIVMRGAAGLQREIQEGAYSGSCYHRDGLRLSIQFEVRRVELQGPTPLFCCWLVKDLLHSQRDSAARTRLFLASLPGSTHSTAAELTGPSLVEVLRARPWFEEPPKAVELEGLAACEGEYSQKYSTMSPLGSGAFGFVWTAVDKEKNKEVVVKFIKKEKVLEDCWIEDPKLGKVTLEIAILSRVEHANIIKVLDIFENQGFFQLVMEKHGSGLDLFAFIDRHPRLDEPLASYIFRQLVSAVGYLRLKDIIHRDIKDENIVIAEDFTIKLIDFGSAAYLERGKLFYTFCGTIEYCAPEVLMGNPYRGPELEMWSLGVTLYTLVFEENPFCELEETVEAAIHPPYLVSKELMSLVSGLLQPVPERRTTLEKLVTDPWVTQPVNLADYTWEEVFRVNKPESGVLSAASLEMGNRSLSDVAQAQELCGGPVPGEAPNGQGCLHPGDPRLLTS
Description: GSK_PKIS: PASK mean inhibition at 0.1 uM [Nanosyn]
readout_kind: inhibition (%)

INSERT INTO results (structure_smiles, value_reported) VALUES
  ('COc1cc2ncn(-c3cc(OCc4ccccc4S(C)(=O)=O)c(C#N)s3)c2cc1OC', 0.91),
  ('O=C(Nc1ccc(Oc2ccc3[nH]c(NC(=O)c4ccco4)nc3c2)cc1)Nc1cc(C(F)(F)F)ccc1F', 0.28),
  ('Cc1cc(-c2ccccn2)cc(C)c1/C=C/c1cncc(-c2nn[nH]n2)c1', -0.97),
  ('Cc1ccc(Nc2ccnc(Nc3cccc(C(N)=O)c3)n2)cc1O', 0.66),
  ('C[C@@H](Oc1cc(-n2cnc3ccc(OCC4CCN(C)CC4)cc32)sc1C(N)=O)c1ccccc1C(F)(F)F', 1.41),
  ('NS(=O)(=O)c1ccc(-c2cc3ccncc3cc2OCc2ccccc2)cc1', -0.27),
  ('CN(C)c1cc2c(Nc3ccc4c(cnn4Cc4ccccc4)c3)ncnc2cn1', 0.31),
  ('COc1cccc(-n2ncc3c(N/N=C/c4ccc(S(C)(=O)=O)cc4)ncnc32)c1', -0.17),
  ('N#Cc1cccc(Nc2nccc(-c3cnn4ncccc34)n2)c1', 0.25),
  ('COc1cc2ncnc(Nc3ccc4c(cnn4Cc4ccccc4)c3)c2cc1OC', 0.55),
  ('CC(C)c1ccc2c(c1)NC(=O)/C2=N/Nc1ccc(S(N)(=O)=O)cc1', 1.25);

====

Reported values of inhibition for individual entries
target: Casein kinase I isoform gamma-3 (Homo sapiens); conditions: at 0.1 µM;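 further: reported value is the mean percent inhibition of the kinase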
readout_kind: inhibition (%)

INSERT INTO measurements (structure_smiles, readout_kind, value_reported) VALUES
  ('COc1cc2ncnc(Nc3ccc(C)c(O)c3)c2cc1OC', 'inhibition', 1.97),
  ('C[C@@H](Oc1cc(-n2cnc3ccc(OCC4CCN(C)CC4)cc32)sc1C(N)=O)c1ccccc1C(F)(F)F', 'inhibition', -1.08),
  ('COc1cc2ncnc(Nc3ccc4c(cnn4Cc4ccccc4)c3)c2cc1OC', 'inhibition', 0.8),
  ('O=C1Nc2ccccc2/C1=C/Nc1ccc2[nH]c(=O)[nH]c2c1', 'inhibition', 3.84),
  ('O=C(Nc1ccc(Oc2ccc3[nH]c(NC(=O)c4ccco4)nc3c2)cc1)Nc1cc(C(F)(F)F)ccc1F', 'inhibition', -2.82),
  ('CC(C)c1ccc(Nc2nccc(-c3cnn4ncccc34)n2)cc1', 'inhibition', 1.13),
  ('COC(=O)c1cncc(/C=C/c2c(C)cc(O)cc2C)c1', 'inhibition', 2.67),
  ('[O-][S+]1CCN(Cc2ccc(-c3ccc4ncnc(Nc5ccc(OCc6ccccc6)c(Cl)c5)c4c3)o2)CC1', 'inhibition', 0.73),
  ('Cc1ccc2c(-c3ccnc(Nc4cccc(C(F)(F)F)c4)n3)c(-c3ccccc3)nn2n1', 'inhibition', 4.25),
  ('Nc1nccc(C#Cc2cncnc2Nc2ccc(OCc3cccc(F)c3)c(Cl)c2)n1', 'inhibition', 3.42),
  ('COc1cccc(-n2ncc3c(N/N=C/c4ccc(C)cc4)ncnc32)c1', 'inhibition', 6.01),
  ('ON=C1CCc2cc(-c3nc(C4CCNCC4)[nH]c3-c3ccncc3)ccc21', 'inhibition', 1.01),
  ('Cc1ccc(C(=O)NC2CC2)cc1-c1ccc2[nH]ncc2c1', 'inhibition', -2.17),
  ('NS(=O)(=O)c1ccc(NC=C2C(=O)Nc3ccc4ncsc4c32)cc1', 'inhibition', 6.11),
  ('c1ccc(Nc2ncc(-c3ccccc3)o2)cc1', 'inhibition', 4.05),
  ('OCc1ccc(-c2nc(-c3ccccn3)c(-c3ccc4c(c3)OCO4)[nH]2)cc1', 'inhibition', 3.67),
  ('CS(=O)(=O)Nc1cccc(-c2ccc3c(NC(=O)C4CC4)n[nH]c3c2)c1', 'inhibition', 0.37),
  ('CS(=O)(=O)CCNCc1nc(-c2ccc3ncnc(Nc4ccc(OCc5cccc(C(F)(F)F)c5)cc4)c3c2)cs1', 'inhibition', 0.51),
  ('NS(=O)(=O)c1cccc(-c2cc3ccncc3cc2OCc2ccccc2)c1', 'inhibition', 4.33),
  ('Cc1nc(-c2ccccc2)n2nc(NCCCN3CCOCC3)ncc12', 'inhibition', 1.6);

====

molecular target: Vascular endothelial growth factor receptor 3 (Homo sapiens) (UniProt P35916); conditions: at 1 µM;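 further: mean FLT4 inhibition, averaged across replicates, from the GSK PKIS kinase inhibitor screen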
Sequence (P35916 whole entry): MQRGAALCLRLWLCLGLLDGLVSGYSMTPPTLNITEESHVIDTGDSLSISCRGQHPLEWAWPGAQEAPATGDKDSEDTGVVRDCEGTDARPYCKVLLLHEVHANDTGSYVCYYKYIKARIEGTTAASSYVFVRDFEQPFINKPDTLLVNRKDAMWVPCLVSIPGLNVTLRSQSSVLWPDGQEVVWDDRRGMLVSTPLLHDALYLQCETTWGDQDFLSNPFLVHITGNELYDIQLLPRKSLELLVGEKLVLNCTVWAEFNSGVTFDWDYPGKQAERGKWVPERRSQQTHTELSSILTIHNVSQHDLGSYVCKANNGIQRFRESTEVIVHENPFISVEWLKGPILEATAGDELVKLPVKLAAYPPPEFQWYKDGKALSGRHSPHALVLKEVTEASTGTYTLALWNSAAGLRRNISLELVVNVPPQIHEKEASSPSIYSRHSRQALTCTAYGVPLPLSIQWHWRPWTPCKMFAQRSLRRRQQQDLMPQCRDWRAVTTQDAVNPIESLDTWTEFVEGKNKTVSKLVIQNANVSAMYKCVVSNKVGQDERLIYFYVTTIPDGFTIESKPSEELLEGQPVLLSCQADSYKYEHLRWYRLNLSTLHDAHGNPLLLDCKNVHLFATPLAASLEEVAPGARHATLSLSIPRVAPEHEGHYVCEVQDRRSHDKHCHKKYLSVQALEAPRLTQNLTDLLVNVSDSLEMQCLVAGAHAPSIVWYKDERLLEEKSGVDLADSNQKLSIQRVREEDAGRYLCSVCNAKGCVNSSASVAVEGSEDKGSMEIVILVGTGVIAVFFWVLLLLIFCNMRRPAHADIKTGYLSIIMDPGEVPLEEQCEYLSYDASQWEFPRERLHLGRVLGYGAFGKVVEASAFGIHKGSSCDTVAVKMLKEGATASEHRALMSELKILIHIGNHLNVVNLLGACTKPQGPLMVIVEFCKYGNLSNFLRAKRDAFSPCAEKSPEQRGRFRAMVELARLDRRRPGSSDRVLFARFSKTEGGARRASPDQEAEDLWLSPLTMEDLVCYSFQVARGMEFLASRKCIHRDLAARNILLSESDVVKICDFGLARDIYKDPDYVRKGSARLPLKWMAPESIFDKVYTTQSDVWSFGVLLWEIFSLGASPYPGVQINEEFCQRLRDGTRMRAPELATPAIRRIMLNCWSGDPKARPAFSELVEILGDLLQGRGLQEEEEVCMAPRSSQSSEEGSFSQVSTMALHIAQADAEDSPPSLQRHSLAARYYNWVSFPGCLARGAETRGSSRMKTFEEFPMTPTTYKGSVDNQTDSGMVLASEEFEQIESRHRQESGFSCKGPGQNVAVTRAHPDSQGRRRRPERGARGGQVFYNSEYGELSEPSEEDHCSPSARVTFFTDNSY
readout_kind: inhibition (%)

INSERT INTO assay_data (compound, system, readout_kind, unit_name, value_reported) VALUES
  ('COc1cc(Nc2nccc(-c3cnn4ncccc34)n2)cc(OC)c1', 'Vascular endothelial growth factor receptor 3 (Homo sapiens) (UniProt P35916)', 'inhibition', '%', 45.4),
  ('CCOc1nccc2c1nc(-c1nonc1N)n2CC', 'Vascular endothelial growth factor receptor 3 (Homo sapiens) (UniProt P35916)', 'inhibition', '%', 19.3),
  ('NC(=O)c1sc(-n2cnc3ccccc32)cc1OCc1ccccc1Br', 'Vascular endothelial growth factor receptor 3 (Homo sapiens) (UniProt P35916)', 'inhibition', '%', 4.24),
  ('COc1ccc2ncnc(Nc3ccc(OCc4ccccc4)cc3)c2c1', 'Vascular endothelial growth factor receptor 3 (Homo sapiens) (UniProt P35916)', 'inhibition', '%', 0.28),
  ('OCc1ccc(-c2nc(-c3ccccn3)c(-c3ccc4c(c3)OCO4)[nH]2)cc1', 'Vascular endothelial growth factor receptor 3 (Homo sapiens) (UniProt P35916)', 'inhibition', '%', -0.57),
  ('CCCN1CCCC(c2ccc(Nc3nc(Nc4cc(F)ccc4C(N)=O)c4cc[nH]c4n3)c(OC)c2)C1 (stereo not drawn)', 'Vascular endothelial growth factor receptor 3 (Homo sapiens) (UniProt P35916)', 'inhibition', '%', 4.1),
  ('ON=C1CCc2cc(-c3nc(C4CCNCC4)[nH]c3-c3ccncc3)ccc21', 'Vascular endothelial growth factor receptor 3 (Homo sapiens) (UniProt P35916)', 'inhibition', '%', 0.4),
  ('CS(=O)(=O)CCNCc1nc(-c2ccc3ncnc(Nc4ccc(OCc5cccc(C(F)(F)F)c5)cc4)c3c2)cs1', 'Vascular endothelial growth factor receptor 3 (Homo sapiens) (UniProt P35916)', 'inhibition', '%', 2.21);
